# credit: ChEMBL document CHEMBL1128535

pIC50, Kappa-type opioid receptor (Cavia porcellus): measured values
*1 amine or outer side, *2 acyl side, *3 side chain or, on linkers, in order; H or OH if unused. Where a SMILES comes first, the peptide text is derived from it. Side-chain parts run from the residue outwards. [ ]: non-standard residue; d: D form. The star is where a group is joined. X2 = CC[C@H](C)[C@H](NC[C@H](CCCCN)N*)C(=O)N[C@@H](CCCN=C(N)N)C(=O)N1CCC[C@H]1C(=O)N[C@@H](CCCCN)C(N)=O; X4 = CC(C)C[C@@H](CN([C@@H](CCCN=C(N)N)C(=O)[*:2])[*:1])N[*:3]
Give bare numbers, as −log10 of the molar value.

Example entries and their recorded answers appear below.
molecule	pIC50
CC[C@H](C)[C@H](NC(=O)[C@H](CCCN=C(N)N)NC[C@H](CCCCN)NC(=O)[C@H](CC(C)C)NC(=O)[C@H](Cc1ccccc1)NC(=O)CNC(=O)CNC(=O)[C@@H](N)Cc1ccc(O)cc1)C(=O)N[C@@H](CCCN=C(N)N)C(=O)N1CCC[C@H]1C(=O)N[C@@H](CCCCN)C(N)=O	9.05
CC[C@H](C)[C@@H](CN[C@@H](CCCN=C(N)N)C(=O)N1CCC[C@H]1C(=O)N[C@@H](CCCCN)C(N)=O)NC(=O)[C@H](CCCN=C(N)N)NC(=O)[C@H](CCCN=C(N)N)NC(=O)[C@H](CC(C)C)NC(=O)[C@H](Cc1ccccc1)NC(=O)CNC(=O)CNC(=O)[C@@H](N)Cc1ccc(O)cc1	9.44
CC[C@H](C)[C@H](NC(=O)[C@H](CCCN=C(N)N)NC(=O)[C@H](CCCN=C(N)N)NC[C@H](CC(C)C)NC(=O)[C@H](Cc1ccccc1)NC(=O)CNC(=O)CNC(=O)[C@@H](N)Cc1ccc(O)cc1)C(=O)N[C@@H](CCCN=C(N)N)C(=O)N1CCC[C@H]1C(=O)N[C@@H](CCCCN)C(N)=O (H-[X4]([Phe-Gly-Gly-Tyr])RIRPK-NH2)	9.21

# return pIC50 for each item in the list
1. CC[C@H](C)[C@H](NC(=O)[C@H](CCCN=C(N)N)NC(=O)[C@H](CCCN=C(N)N)NC(=O)[C@H](CC(C)C)NC(=O)[C@H](Cc1ccccc1)NC(=O)CNC(=O)CNC(=O)[C@@H](N)Cc1ccc(O)cc1)C(=O)N[C@@H](CCCCN)CN1CCC[C@H]1C(=O)N[C@@H](CCCCN)C(N)=O
2. CC[C@H](C)[C@H](NC[C@H](CCCCN)NC(=O)[C@H](CCCN=C(N)N)NC(=O)[C@H](CC(C)C)NC(=O)[C@H](Cc1ccccc1)NC(=O)CNC(=O)CNC(=O)[C@@H](N)Cc1ccc(O)cc1)C(=O)N[C@@H](CCCN=C(N)N)C(=O)N1CCC[C@H]1C(=O)N[C@@H](CCCCN)C(N)=O (H-YGGFLR-X2)

A:
1. 9.62
2. 9.80
